Reported Activity values for a set of compounds
tested on: BT-549; assay: Anticancer activity against human BT549 cells assessed cell growth at 10 uM after 48 hrs by sulforhodamine B assay relative to control; format: functional
Use % as the unit, but write only the number.

Value lookup for Activity; key = CCCCCCCC[n+]1ccn(C)c1.[Cl-]
81.23

Value lookup for Activity; key = COCC[n+]1ccn(C)c1.O=S(=O)([N-]S(=O)(=O)C(F)(F)F)C(F)(F)F
96.44

Value lookup for Activity; key = CCCCCCCCCCCCCCCCCC[n+]1ccn(C)c1.O=S(=O)([N-]S(=O)(=O)C(F)(F)F)C(F)(F)F
-54.97

Value lookup for Activity; key = CCCCCC[n+]1ccn(C)c1.O=S(=O)([N-]S(=O)(=O)C(F)(F)F)C(F)(F)F
119.52

Value lookup for Activity; key = CCCCCCCCCCCC[n+]1ccn(C)c1.F[B-](F)(F)F
1.51

Value lookup for Activity; key = CCCCCCCC[n+]1ccn(C)c1.F[B-](F)(F)F
64.81

* * *

system: Malme-3M; assay: Anticancer activity against human MALME-3M cells assessed cell growth at 10 uM after 48 hrs by sulforhodamine B assay relative to control; type: functional
measure: Activity (%)
Use % as the unit, but write only the number.

Known results for compounds:
CCCCCCCCCCCCCCCCCC[n+]1ccn(C)c1.[Cl-] = -62.43
CCCCCCCCCCCC[n+]1ccn(C)c1.F[B-](F)(F)F = 31.87
Cn1cc[n+](Cc2ccccc2)c1.F[P-](F)(F)(F)(F)F = 118.68
CCCCCCCC[n+]1ccn(C)c1.[Cl-] = 80.97
CCCCCCCCCCCCCCCCCC[n+]1ccn(C)c1.FC(F)(F)C(F)(F)[P-](F)(F)(F)(C(F)(F)C(F)(F)F)C(F)(F)C(F)(F)F = -51.72
CCCCCC[n+]1ccn(C)c1.O=S(=O)([N-]S(=O)(=O)C(F)(F)F)C(F)(F)F = 102.07
CCCCCCCCCCCCCCCC[n+]1ccn(C)c1.[Cl-] = -77.38
CCCCCCCCCCCCCCCCCC[n+]1ccn(C)c1.O=S(=O)([N-]S(=O)(=O)C(F)(F)F)C(F)(F)F = -49.87
CCCCCCCC[n+]1ccn(C)c1.F[P-](F)(F)(F)(F)F = 62.25
CCCCCCCCCCCC[n+]1ccn(C)c1.[Cl-] = 24.55

Switching to the query record.
Value lookup for Activity; key = CCCCCCCCCCCCCCCCCC[n+]1ccn(C)c1.F[P-](F)(F)(F)(F)F
-46.96

* * *

tested on: MDA-MB-231; test: Anticancer activity against human MDA-MB-231 cells assessed cell growth at 10 uM after 48 hrs by sulforhodamine B assay relative to control; assay type: functional
I'd appreciate it if you marked entries y when Activity is lower than 70% and n when it is not.

Past entries and their recorded results:
CCCCCCCCCCCCCCCCCC[n+]1ccn(C)c1.FC(F)(F)C(F)(F)[P-](F)(F)(F)(C(F)(F)C(F)(F)F)C(F)(F)C(F)(F)F = y
CCCCCCCCCCCCCCCCCC[n+]1ccn(C)c1.[Cl-] = y
CCCCCCCCCCCC[n+]1ccn(C)c1.F[B-](F)(F)F = y
CCCCCCCCCCCC[n+]1ccn(C)c1.[Cl-] = y
CCCCCCCC[n+]1ccn(C)c1.[Cl-] = n

Below 70% on Activity? Entry CCCCCC[n+]1ccn(C)c1.FC(F)(F)C(F)(F)[P-](F)(F)(F)(C(F)(F)C(F)(F)F)C(F)(F)C(F)(F)F
n

Below 70% on Activity? Entry Cn1cc[n+](Cc2ccccc2)c1.F[P-](F)(F)(F)(F)F
n

Below 70% on Activity? Entry CCCCCCCCOS(=O)(=O)[O-].CCCCCCCC[n+]1ccn(C)c1
y

Below 70% on Activity? Entry CCCCCCCCCCCCCCCCCC[n+]1ccn(C)c1.F[P-](F)(F)(F)(F)F
y

Below 70% on Activity? Entry CCCCCCCC[n+]1ccn(C)c1.F[B-](F)(F)F
n
